- System: H460 (KRAS mutated)
- Measurement protocol: Cytotoxicity assay
- Type: cell-based
- Run conditions: H460, 48 h, single agent; no unit printed in Table 3 (b74 gives μM)
Readout name: IC50 (µM)
Answer with a number only, understood to be in µM.

Task: Print H460 (KRAS mutated) IC50 for COC(=O)[C@@]1(C)CC[C@]2(C)CC[C@]3(C)C(=CC(=O)[C@@H]4[C@@]5(C)C=C(C#N)C(=O)C(C)(C)[C@@H]5CC[C@]43C)[C@@H]2C1 .
Result: 5.5

* * *

- Test system: H1975 (T790M EGFR ERL Resistant)
- Measurement protocol: Cytotoxicity assay
- Format: cell-based
- Run conditions: H1975, 48 h, single agent; no unit printed in Table 3 (b74 gives μM)
Readout name: IC50 (µM)
Answer with a number only, understood to be in µM.

Task: Tell us which IC50 value is on record for COC(=O)[C@@]1(C)CC[C@]2(C)CC[C@]3(C)C(=CC(=O)[C@@H]4[C@@]5(C)C=C(C#N)C(=O)C(C)(C)[C@@H]5CC[C@]43C)[C@@H]2C1 [CDODA-Me]
Result: 6.2
